Taken from PubChem BioAssay (NCI).

Entries and their measured TGI follow.
# System: P388 leukemia
# procedure details: NCI tumour cell line growth inhibition, 48 h
Numbers only; they are read as µM.

Solved cases (2 shown):
>>> numeric_value("Cc1[nH]c(=O)[nH]c(=O)c1/C=C/C(=O)NC(CO)CS(=O)CS(C)=O (centres undefined)")
74.8
>>> numeric_value("CC1C(=O)CC(c2cccs2)N(N=O)C1c1cccs1 (centres undefined)")
43.1

Now consider the entry below.
stdin: Give the measured TGI of CN(C)CCNC(=O)c1cc(Cl)cc2cc3ccccc3nc12 .
stdout: 20.1

* * *

Entries and their measured TGI follow.
# Tested on: DU-145 prostate
# procedure details: NCI tumour cell line growth inhibition, 48 h
Numbers only; they are read as µM.

>>> numeric_value("CC(C)(Oc1ccc(Cl)cc1)C(=O)N(C(=O)N1CCCCC1)c1ccccc1")
27.8
>>> numeric_value("CN(C)Cc1cc(C(=O)/C=C/c2ccc(Cl)c(Cl)c2)cc(CN(C)C)c1O")
15.9
>>> numeric_value("COc1ccc(/C=C2\\COc3ccc(O)c(O)c3C2=O)c(OC)c1OC")
26
>>> numeric_value("O=C(NCCCl)Nc1cccnc1")
29.4

stdin: Give the measured TGI of Cc1ccc2cccc(OC(=O)Nc3cccc(C(F)(F)F)c3)c2n1 .
stdout: 82.4

* * *

# System: A498 renal
# procedure details: NCI tumour cell line growth inhibition, 48 h
reported metric: TGI

Solved cases (3 shown):
>>> result("O=c1[nH]c(N/N=C\\C(=N/Nc2nc3ccccc3c(=O)[nH]2)C(O)C(O)C(O)CO)nc2ccccc12 (stereo unspecified)")
"> 100 µM"
>>> result("COc1cc(-c2nc3sc(C)cn3c2/C=C2\\C(=O)Nc3ccccc32)c(Br)c(OC)c1OC")
"63.5 µM"
>>> result("CCCCCCn1c(SC)nc(COC(=O)NC)c1COC(=O)NC")
"30.8 µM"

Now consider the entry below.
stdin: Give the measured TGI of O=C(C=P(c1ccccc1)(c1ccccc1)c1ccccc1)CCl .
stdout: 2.46 µM

* * *

# Tested on: NCI-H522 lung
# procedure details: NCI tumour cell line growth inhibition, 48 h
Entries and their measured log10 TGI follow.
In plain terms, each number is the log10 of measured TGI in µM.

>>> numeric_value("CN(C)C=Nc1c2ccccc2nc2ccccc12")
0.70
>>> numeric_value("O=C(Oc1c(Cl)cc(C2(c3cc(Cl)c(OC(=O)c4ccccc4)c(Cl)c3)CCCCC2)cc1Cl)c1ccccc1")
1.47
>>> numeric_value("C=C1[C@H](OCC(C)C)[C@@H](O)[C@@H](OC(=O)c2cccnc2)C(C)(C)/C=C/[C@H](C)[C@H](OC(C)=O)[C@@]2(O)C[C@@](C)(OC(C)=O)[C@H](OC(=O)c3ccccc3)[C@@H]2[C@H]1OC(C)=O")
0.40

stdin: Query for NCI-H522 lung: what log10 TGI does the record show for COc1ccc(C(=O)c2c3cc(OC)c(OC)c(OC)c3cc[n+]2C)cc1 ?
stdout: 1.80

stdin: Let us now turn to Cc1c(/C=N/NC(=S)Nc2ccc(Cl)cc2)c(=O)n(-c2ccccc2)n1C
stdout: 1.35

stdin: Let us now turn to NC(=S)N/N=C1\c2ccccc2-c2c(F)c(F)c(F)c(F)c21
stdout: 0.08

* * *

Entries and their measured log10(TGI) follow.
# Tested on: MCF7 breast
# procedure details: NCI tumour cell line growth inhibition, 48 h
In plain terms, each number is the log10 of measured TGI in µM.

Solved cases (5 shown):
>>> numeric_value("Cn1c(=O)nc2n(-c3ccc(Cl)cc3)c3cc(Cl)ccc3nc-2c1=O")
0.45
>>> numeric_value("Oc1[nH]c(=S)[nH]c1/C=C1/C(c2ccccc2)=Nc2ccccc21")
1.45
>>> numeric_value("Cc1cc2nc(C=C(C(F)(F)F)C(F)(F)F)sc2cc1C")
1.10
>>> numeric_value("C#CC(=O)Nc1cccc2c1cc(C)n2-c1nc2c(c(NCc3ccccc3)n1)CCCC2")
0.09
>>> numeric_value("CC(=O)CC/C=C(\\C)[C@H](O)[C@H](C)C(=O)O[C@H]1C[C@H](C)C=C2C=C[C@@]3(C)O[C@@H](O)CC(=O)[C@]3(C)[C@H]21")
0.79

Now consider the entry below.
stdin: Give the measured log10(TGI) of CC(C)CCCC(C)[C@H]1CC[C@H]2n3c(nc4ccccc43)CCC[C@]12C (some centres not stated) .
stdout: 1.45

* * *

# Test system: KM12 colon
# procedure details: NCI tumour cell line growth inhibition, 48 h
reported metric: TGI (µM)
Numbers only; they are read as µM.

>>> numeric_value("CCCCCCn1c(SC)nc(COC(=O)NC)c1COC(=O)NC")
32.6
>>> numeric_value("CCN(CC)CC(C)C(=O)/C=C/c1ccc(C)cc1 (configuration not stated)")
1.96
>>> numeric_value("COC1=C(C)C(=O)c2c(c(CCCl)c3n2CCC3OC(C)=O)C1=O (configuration not stated)")
3.05

Now consider the entry below.
stdin: Give the measured TGI of Cc1cc2nc(C=C(C(F)(F)F)C(F)(F)F)sc2cc1C .
stdout: 4.41

* * *

# Tested on: HOP-62 NSCLC
# procedure details: NCI tumour cell line growth inhibition, 48 h
Entries and their measured TGI follow.
Numbers only; they are read as µM.

Solved cases (2 shown):
>>> numeric_value("CCOc1ccc(/C=C/c2cc(OC)c(OC)c(OC)c2)cc1")
35.9
>>> numeric_value("C=C1C(=O)O[C@@H]2/C=C(\\C)CC/C=C(\\C)CC[C@@]12O")
15.6

Now consider the entry below.
stdin: Give the measured TGI of CCCCCCn1c(SC)nc(COC(=O)NC)c1COC(=O)NC .
stdout: 37.1

* * *

Entries and their measured TGI follow.
# Tested on: SN12K1 renal
# procedure details: NCI tumour cell line growth inhibition, 48 h
Numbers only; they are read as µM.

>>> numeric_value("CC[C@@]1(O)C(=O)OCc2c1cc1n(c2=O)Cc2cc3ccccc3nc2-1")
1

stdin: Give the measured TGI of Cc1[nH]c(=O)[nH]c(=O)c1/C=C/C(=O)NC(CO)CS(=O)CS(C)=O (stereo not given) .
stdout: 64.8

stdin: Let us now turn to CN(C)CCNC(=O)c1cc(Cl)cc2cc3ccccc3nc12
stdout: 3.34

* * *

# Test system: SK-MEL-2 melanoma
# procedure details: NCI tumour cell line growth inhibition, 48 h
reported metric: TGI

>>> result("O=C(c1ccccc1Cl)n1oc2ccccc2c1=O")
"> 100 µM"
>>> result("O=C(O)C1(Cc2ccccc2)Cc2cc3c(cc2C1)CCC3")
"> 100 µM"
>>> result("CC(C)(Oc1ccc(Cl)cc1)C(=O)N(C(=O)N1CCCCC1)c1ccccc1")
"32 µM"

stdin: Give the measured TGI of O=C(/C=C/c1ccccc1O)c1ccc([N+](=O)[O-])cc1 .
stdout: 66.8 µM

stdin: Let us now turn to O/N=C(/CC(O)(C(F)(F)F)C(F)(F)F)c1ccccc1
stdout: > 10 µM

stdin: Let us now turn to Cc1cc(C)nc(NS(=O)(=O)c2ccc(Nc3c4ccccc4nc4c(C(=O)NC(CO)(CO)CO)cccc34)cc2)n1
stdout: 44.4 µM

stdin: Let us now turn to c1ccncc1
stdout: > 100 µM

stdin: Let us now turn to CNC(=O)C1(C#N)C(c2ccccc2)C(C#N)(C(=O)NC)C1c1ccccc1 (configuration not stated)
stdout: > 100 µM

stdin: Let us now turn to CN(CC(=O)O)Cc1c(O)c(Cl)cc(Cl)c1Cl
stdout: > 100 µM

stdin: Let us now turn to CC(=O)NCCCCN(CCCNC(C)=O)C(=O)CNS(=O)(=O)c1cccc2c(N(C)C)cccc12
stdout: > 100 µM

stdin: Let us now turn to COc1cc2cc(C(=O)N3CC(CCl)c4ccc([N+](=O)[O-])cc43)[nH]c2c(OC)c1OC (configuration not stated)
stdout: > 100 µM

stdin: Let us now turn to CCCCNS(=O)(=O)c1n[nH]c(=O)[nH]c1=O
stdout: > 100 µM

stdin: Let us now turn to COc1cc(/C=N/c2nc3cc4sc(/N=C/c5cc(OC)c(OC)c(OC)c5)nc4cc3s2)cc(OC)c1OC
stdout: > 100 µM

stdin: Let us now turn to Cc1[nH]c2ccccc2c1CC/C(=N\Nc1ccccc1)c1ccccc1
stdout: > 100 µM

stdin: Let us now turn to COC(=O)C1=C(C)N2CCSC2(C)C(C(=O)OC)C1c1cccc(Cl)c1 (configuration not stated)
stdout: 34.2 µM

stdin: Let us now turn to c1cc2nnsc2s1
stdout: > 100 µM

stdin: Let us now turn to O=C(O)CC(NC(=O)/C(=C/c1ccccc1)NC(=O)c1ccccc1)C(=O)O (configuration not stated)
stdout: > 100 µM

stdin: Let us now turn to CC(C)(C)C(=O)Nc1cccc2oc(-c3ccccc3)cc12
stdout: > 100 µM

stdin: Let us now turn to COc1ccc(NC(C)=O)cc1N1C(=O)/C(=C\c2ccccc2)SC1c1cc(OC)c(OC)c(OC)c1 (configuration not stated)
stdout: > 100 µM

stdin: Let us now turn to Cc1ccc(Cc2nn(C)c(=O)n2N)cc1
stdout: > 100 µM

stdin: Let us now turn to COc1ccc(/C=C2\COc3ccc(O)c(O)c3C2=O)c(OC)c1OC
stdout: 31.1 µM

stdin: Let us now turn to CC1(C)C2CCC1(C)C(OC(=O)/C=C/C(=O)OC1CC3CCC1(C)C3(C)C)C2 (configuration not stated)
stdout: > 100 µM
